test-name: AD solubility in crystallization solvents
Format: physicochemical
test-context: di-n-butyl ether, organic solvent or mixture; read-out: AD solubility in di-n-butyl ether
readout-kind: solubility

Problem: Recorded solubility for CC(C)(C)C(=O)OCOP(=O)(COCCn1cnc2c(N)ncnc21)OCOC(=O)C(C)(C)C [AD] , please?
Solution: < 300 µg/mL

====

test-name: AD solubility in crystallization solvents
Type: physicochemical
test-context: organic solvent or mixture; methanol, room temperature; read-out: AD solubility in methanol
readout-kind: solubility

Problem: Recorded solubility for CC(C)(C)C(=O)OCOP(=O)(COCCn1cnc2c(N)ncnc21)OCOC(=O)C(C)(C)C [AD] , please?
Solution: > 600 mg/mL

Values compiled from patent US6451340B1.
